Just for reference, patent US12624004B2 is where these values come from.

# Tgt: κ opioid receptor (Homo sapiens)
# Construct: expressed in transfected cells; host or cells: CHO cells (membranes)
# Method description: Competition binding assay on membranes of CHO cells expressing κ opioid receptor, [3H]-labeled ligand
# Test context: 0.5 h; Table 1-1; 10 μM concentration of compound; read-out: κOR Binding rate (%)
# Method: CHO cells expressing p opioid receptor, δ opioid receptor and κ opioid receptor were cultured in 10 cm^2 culture dishes (F-12 medium+10% neonatal bovine serum) for several days, and the culture fluid was aspirated after the cells had grown to the bottom of the dishes; 3 ml of PBS/EDTA solution (0.1M NaCl, 0.01M NaH2PO4, 0.04% EDTA) was added to digest the cells for 3-5 min. […]
Structures can show the parent of a compound that is named as a salt.
inhibition at 10 µM vs 40%: at or above is true (1), below is false (0).

Field: example entries. Status: answers known.
[[record]]
molecule = "COc1cccc(C2(O)CCC(NS(=O)(=O)c3cccs3)CC2CN(C)C)c1 (centres unmarked) [hydrochloride]"
assigned_class = "false (0)"

[[record]]
molecule = "COc1cccc(C2(O)CCC(NS(=O)(=O)c3cccc(Cl)c3)CC2CN(C)C)c1 (centres unmarked)"
assigned_class = "false (0)"

[[record]]
molecule = "COc1cccc(C2(O)CCC(N(C)S(=O)(=O)c3ccccc3)CC2CN(C)C)c1 (centres unmarked) [hydrochloride]"
assigned_class = "true (1)"

[[record]]
molecule = "COc1cccc(C2(O)CCC(NS(=O)(=O)c3ccccc3)CC2CN(C)C)c1 (centres unmarked) [hydrochloride]"
assigned_class = "false (0)"


For the next question, use this molecule.
Query :: Kindly determine if inhibition at 10 µM recorded for COc1cccc(C2(O)CCCCC2CN(C)C)c1 (centres unmarked) [Tramadol, reference compound] is above or exactly 40%.
Result :: false (0)

###

# Tgt: δ opioid receptor (Homo sapiens)
# Construct: expressed in transfected cells; host or cells: CHO cells (membranes)
# Method description: Competition binding assay on membranes of CHO cells expressing δ opioid receptor, [3H]-labeled ligand
# Test context: 0.5 h; Table 2-1; 1 μM concentration of compound; read-out: δOR Binding rate (%)
Structures can show the parent of a compound that is named as a salt.
Observed property: inhibition at 1 µM
Give the number first and the unit second.

Examples with their reported inhibition at 1 µM follow.
[[record]]
compound = "COc1cccc(C2(O)CCCCC2CN(C)C)c1 (stereo not shown) [Tramadol, reference compound]"
result = "0%"

[[record]]
compound = "CCCS(=O)(=O)N1CCC(O)(c2cccc(OC)c2)C(CN(C)C)C1.Cl (stereo not shown) [FWBH19, hydrochloride]"
result = "17.5%"

[[record]]
compound = "COc1cccc(C2(O)CCN(S(=O)(=O)Cc3cccc([N+](=O)[O-])c3)CC2CN(C)C)c1.Cl (stereo not shown) [FWBH22, hydrochloride]"
result = "10.2%"

[[record]]
compound = "COc1cccc(C2(O)CCN(S(=O)(=O)Cc3ccc(C)cc3)CC2CN(C)C)c1.Cl (stereo not shown) [FWBH8, hydrochloride]"
result = "11.9%"

[[record]]
compound = "COc1cccc(C2(O)CCN(S(=O)(=O)C[C@@]34CC[C@@H](CC3O)C4(C)C)CC2CN(C)C)c1 (stereo partly shown) [FWBH26, hydrochloride]"
result = "9.15%"

[[record]]
compound = "COc1cccc(C2(O)CCN(S(=O)(=O)Cc3cccc(Cl)c3)CC2CN(C)C)c1.Cl (stereo not shown) [FWBH7, hydrochloride]"
result = "28.8%"


Query :: Checklist item: inhibition at 1 µM tested on δ opioid receptor (Homo sapiens), entry COc1cccc(C2(O)CCN(S(=O)(=O)Cc3ccc(C(F)(F)F)cc3)CC2CN(C)C)c1.Cl (stereo not shown) [FWBH17, hydrochloride] , value?
Result :: 29.3%
